Source listed as patent US7402602B2.

Measured Property: melting point (°C)

Examples from the recorded data:
>>> assay_result("CCCCCCc1nc(-c2ccc(-c3ccccc3)cc2)c[nH]1")
104.8
>>> assay_result("c1ccc(-c2ccc(-c3c[nH]c(CCC4CCCCC4)n3)cc2)cc1")
104.9
>>> assay_result("CCCCCC(CCCCC)c1nc(-c2ccccc2)c[nH]1")
111.2

A = CCCC(CCC)c1nc(-c2ccc(-c3ccc(Br)cc3)cc2)c[nH]1
B = CC(C)Cc1ccc(C(C)c2nc(-c3ccc(F)cc3)c[nH]2)cc1 (stereo not drawn)
Compare melting point: is it lower for A or for B ? Please identify the chosen entry by its label.
B
